System: RXF 393 renal
method: NCI tumour cell line growth inhibition, 48 h
Recorded TGI for the following compounds
Numeric only. Scale: µM

// worked examples, TGI included
O=C1c2ccccc2C(=O)c2c(NCCNCCO)ccc(O)c21
7.92
COc1cc(-c2cc(=O)c3c(O)c(OC)c(OC)c(OC)c3o2)ccc1O
48

Moving on to the next compound.
Need TGI of CN(C)CCOc1ccc(/C(=C(/CCCl)c2ccccc2)c2ccccc2)cc1 , thanks.
1.4

====

Tested on: RPMI-8226 leukemia
method: NCI tumour cell line growth inhibition, 48 h
attribute-measured: TGI

// worked examples, TGI included
CC(=O)OC[C@@H]1[C@H]2CC[C@]3(C)[C@@H](OC(C)=O)CC[C@H]3[C@@H]2CC[C@H]1C1(C)SCCS1
> 25 µM
COc1ccc(C2=NN(C(=O)c3cc(OC)c(OC)c(OC)c3)C(c3ccc(Cl)cc3)C2)cc1OC (stereo not given)
> 100 µM
Cn1nnnc1N/N=C/c1ccccc1
> 10 µM
COC(=O)C1C(OC(=O)C(Cl)(c2ccccc2)c2ccccc2)CC2CCC1N2C (stereo not given)
> 100 µM

Need TGI of COC(=O)c1ccc(NC(=O)Nc2ccc3oc(=O)c4ccccc4c3c2)cc1 , thanks.
> 100 µM

====

Tested on: NCI-H23 lung
method: NCI tumour cell line growth inhibition, 48 h
Where a SMILES comes first, the peptide text is derived from it. The star is where a group is joined. Pentanoyl = CCCCC(=O)*; Boc = CC(C)(C)OC(=O)*
Recorded TGI for the following compounds

// worked examples, TGI included
CCCCC(=O)Oc1ccc(CC(NC(=O)OC(C)(C)C)C(=O)NC(C)C(=O)NC(Cc2ccccc2)C(=O)NCC(N)=O)cc1 (stereo not drawn) (Boc-Y(Pentanoyl)AFG-NH2; configuration not given here)
> 100 µM
O=P1(c2ccccc2)c2ccccc2CCc2ccccc21
> 100 µM

Moving on to the next compound.
Need TGI of O=C(CCl)NC(Cc1ccc(F)cc1)C(=O)O (stereo not drawn) , thanks.
> 100 µM

====

System: UO-31 renal
method: NCI tumour cell line growth inhibition, 48 h
attribute-measured: TGI

// worked examples, TGI included
CC/C=C\C/C=C\C[C@H](O)C/C=C1/C(=O)C=C[C@@H]1C/C=C\CCCC(=O)O
20.3 µM
CSCCC(N)P(C)(=O)O (configuration not stated)
> 100 µM
CCOc1cc2c(cc1O)/C(=N\O)C[C@@H]1[C@@H]2CC[C@]2(C)[C@@H](O)CC[C@@H]12
46.1 µM
O=c1c2ccccc2n2n1CC(O)C2 (configuration not stated)
> 100 µM
COc1cnc2c(c1)C(=O)c1c-2n(CCCN2CCC(O)CC2)c(=O)c2cc(F)ccc12
0.619 µM
Cc1cc2c(cc1C)[n+](=O)c(C#N)c(Cl)n2[O-]
32.2 µM
CN(C)CCNC(=O)Cn1cc([N+](=O)[O-])c(=O)c2ccccc21
> 100 µM
COC(=O)Nc1nc2ccc(S(=O)(=O)n3nnc4ccccc43)cc2[nH]1
> 100 µM

Need TGI of CC(=O)c1cccc(NC(=O)C(=O)C(C2OC(=O)c3ccccc32)[N+](=O)[O-])c1 (configuration not stated) , thanks.
> 100 µM

Need TGI of Cc1ccc(C[P+]2(c3ccccc3)CCCCC2)cc1 , thanks.
> 100 µM

Need TGI of C=CC(C)(O)/C=C/C=C(\C)C(CC1OC1(C)C)OC(=O)/C(C)=C\C (configuration not stated) , thanks.
> 100 µM

Need TGI of O=C1/C(=C/c2ccc(Cl)cc2)N=C(c2ccccc2)N1c1nc2ccccc2s1 , thanks.
> 100 µM

Need TGI of CCCCCCCCCCCCCCCC(=O)OCC1CCCN2CCCCC12 (configuration not stated) , thanks.
> 100 µM

Need TGI of CCOC(=O)c1cc2c(nc1N)-c1ncccc1CC2 , thanks.
> 100 µM

Need TGI of CC(=O)OC/C=C/Cn1ncc(=O)[nH]c1=O , thanks.
> 100 µM

Need TGI of O=C1OCCC1C(O)C1c2ccccc2-c2ccccc21 (configuration not stated) , thanks.
> 100 µM

Need TGI of O=C(CCl)NC(Cc1ccc(F)cc1)C(=O)O (configuration not stated) , thanks.
> 100 µM

====

Test system: A498 renal
method: NCI tumour cell line growth inhibition, 48 h
Where a SMILES comes first, the peptide text is derived from it. The star is where a group is joined. Pentanoyl = CCCCC(=O)*; Boc = CC(C)(C)OC(=O)*
attribute-measured: TGI

// worked examples, TGI included
CCCCC(=O)Oc1ccc(CC(NC(=O)OC(C)(C)C)C(=O)NC(C)C(=O)NC(Cc2ccccc2)C(=O)NCC(N)=O)cc1 (stereo not drawn) (Boc-Y(Pentanoyl)AFG-NH2; configuration not given here)
> 100 µM
CCCCCCCCOC(CO)CO
> 100 µM

Moving on to the next compound.
Need TGI of O=C1Nc2ccccc2S/C1=C\c1cccc(C(F)(F)F)c1 , thanks.
> 100 µM

====

System: SF-268 CNS
method: NCI tumour cell line growth inhibition, 48 h
Recorded TGI for the following compounds

N=c1nc2n(cc1F)[C@@H]1O[C@H](CO)[C@@H](O)[C@@H]1O2
> 100 µM

Need TGI of CCCCCCCCCCCCCCCC(=O)OCC1CCCN2CCCCC12 (configuration not stated) , thanks.
> 100 µM

Need TGI of CCOC(=O)[C@H]1Nc2c(cccc2[N+](=O)[O-])[C@H]2OCC[C@@H]12 , thanks.
> 100 µM

Need TGI of Cc1ccc(/C(=C\C(=O)C(=O)NC23CC4CC(CC(C4)C2)C3)Sc2ccccc2)cc1 , thanks.
> 10 µM

Need TGI of CN(C)CCNC(=O)Cn1cc([N+](=O)[O-])c(=O)c2ccccc21 , thanks.
> 100 µM

Need TGI of ClCCN1CCOC1=Nc1ccc2c(c1)CCCC2 , thanks.
47.7 µM

Need TGI of CC/C(=C(/CC)c1ccc([O-])cc1)c1ccc([O-])cc1.CC/C(=C(\CC)c1ccc([O-])cc1)c1ccc([O-])cc1.O=C([CH-]C(=O)c1ccccc1)c1ccccc1.O=C([CH-]C(=O)c1ccccc1)c1ccccc1.O=C([CH-]C(=O)c1ccccc1)c1ccccc1.O=C([CH-]C(=O)c1ccccc1)c1ccccc1.[Ti+4].[Ti+4] , thanks.
> 100 µM

Need TGI of COc1ccc2nc3cc(Cl)ccc3c(N3CCN(c4ccnc(N5CCOCC5)n4)CC3)c2c1 , thanks.
> 100 µM

Need TGI of O=C1c2ccccc2C(=Cc2ccccc2)c2ccccc21 , thanks.
16.6 µM

Need TGI of C/C(=N\N=C(\[Se])N1CCN(c2ccccn2)CC1)c1ccccn1 , thanks.
19.5 µM

Need TGI of Cc1ccc2nc(-c3ccc(-n4c(C)nc(=O)c(-c5ccc(F)cc5)c4C)cc3)sc2c1 , thanks.
53.9 µM

Need TGI of Cc1n[nH]c(=O)n1/N=C/c1cccs1 , thanks.
> 100 µM

Need TGI of Nc1ccc(N=Nc2ccc(-c3ccc(O)cc3)cc2)c2ccc(S(=O)(=O)O)cc12 , thanks.
> 100 µM

Need TGI of O=C1C(C(c2ccccc2)N2CCOCC2)=C(O)C(c2ccccc2)N1c1ccccc1 (configuration not stated) , thanks.
> 10 µM

Need TGI of CCOC(=O)C(NCc1ccc2c(c1)OCO2)(NC(=O)c1ccccc1)C(F)(F)F (configuration not stated) , thanks.
> 100 µM

Need TGI of O=P(NC12CC3CC(CC(C3)C1)C2)(N1CC1)N1CC1 , thanks.
> 100 µM

Need TGI of O=C(O)c1ccccc1CC1Cc2ccc3c(c2C1=O)CCC3 (configuration not stated) , thanks.
> 100 µM

====

Test system: 786-0 renal
method: NCI tumour cell line growth inhibition, 48 h; in the data active = GI50 below about 0.43 µM; inactive = the rest
Tick one outcome: active, inactive

Look over these answered cases.
CC/C(=C(/CC)c1ccc([O-])cc1)c1ccc([O-])cc1.CC/C(=C(\CC)c1ccc([O-])cc1)c1ccc([O-])cc1.O=C([CH-]C(=O)c1ccccc1)c1ccccc1.O=C([CH-]C(=O)c1ccccc1)c1ccccc1.O=C([CH-]C(=O)c1ccccc1)c1ccccc1.O=C([CH-]C(=O)c1ccccc1)c1ccccc1.[Ti+4].[Ti+4]
inactive
CC(C)(C)c1[nH]cnc1/C=c1\[nH]c(=O)/c(=C/c2ccccc2)[nH]c1=O
active

Would you kindly look at the next entry?
Tell me the recorded outcome of this test for CC(C)(C#N)c1cc(F)cc(C(=O)Nc2cc(Nc3ncccc3-c3ncnc4nc[nH]c34)ccc2F)c1 .
inactive

====

Recorded log10(TGI) for the following molecules
Tested on: SK-MEL-5 melanoma
method: NCI tumour cell line growth inhibition, 48 h
Answers are given as log10 of TGI in µM.

// worked examples, log10(TGI) included
COc1cc(-c2cc(=O)c3c(O)c(OC)c(OC)c(OC)c3o2)ccc1O
1.68
COc1ccc2c3c(n(Cc4ccccc4)c(=O)c2c1)-c1cc(OC)c(OC)cc1C3C (stereo not given)
1.71
Cn1c(O)c(C(/C=C/c2ccccc2)=NCCN=C(/C=C/c2ccccc2)c2c(O)n(C)c(=O)n(C)c2=O)c(=O)n(C)c1=O
1.47

Need log10(TGI) of COc1ccc2c(c1)[n+]([O-])c(-c1ccccc1)c(N)[n+]2[O-] , thanks.
1.54

Need log10(TGI) of CN1CCN(Cc2ccc(NC(=O)c3cncc(C#Cc4cncc5ncccc45)c3)cc2C(F)(F)F)CC1 , thanks.
1.13

Need log10(TGI) of CCCc1c[nH]c(-c2ccc(-c3cc(CCC)c(C=O)[nH]3)s2)c1 , thanks.
1.49

Need log10(TGI) of CC/C=C\C/C=C\C[C@H](O)C/C=C1/C(=O)C=C[C@@H]1C/C=C\CCCC(=O)O , thanks.
0.78

Need log10(TGI) of N#Cc1ccc(N2Cc3ccccc3OC3=C2C(=O)c2c(O)ccc(O)c2C3=O)cc1 , thanks.
0.35

Need log10(TGI) of COc1ccc2c(c1)c1c(n2CCN(C)C)-c2cccc(OC)c2CC1 , thanks.
1.54

Need log10(TGI) of O=C1C2=Nc3ccccc3C(O)N2c2ccccc21 (stereo not given) , thanks.
0.58
